# target.desc: Focal adhesion kinase 1 (Homo sapiens)
# test.description: small-molecule microarray binders of FAK, primary screen, biochemical, 635/667 nm fluorescence, BSA, DTT (AID 1130);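 note: composite of spot emission at 667 nm and signal to noise over triplicate slides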
# assay.context: PTK2 binding, 635 nm fluorescence, higher = more signal
readout.kind: composite z-score
Please respond with just the number, no unit label.

Observe how each entry below is paired with its result.
Entry "COCCOC(=O)N1C(=O)[C@@]2(c3ccccc31)[C@H](c1ccc(OCCO)cc1)N1[C@H](c3ccccc3)[C@H](c3ccccc3)OC(=O)[C@H]1[C@@H]2C(=O)N1CCCCCCC1" : reported composite z-score = ?
4.76

Same question, "C=CCN1C(=O)[C@]2(O[C@H](CCO)[C@@H]([Si](C)(C)c3ccc(OC)cc3)[C@@H]2C)c2cc(NC(=O)c3ccc(OC)cc3)ccc21" this time
0.241

Lookup "C=C(/C(=C/C[C@@H](OC(C)=O)c1ccc(OCCO)cc1)c1cc(C(=O)OC)ccc1OC)C(C)C"
0.211

Would you mind doing "Cc1ccc(S[C@]2(C(=O)NCC(C)C)CC(=O)N(C3Cc4ccccc4C3)[C@@H]2c2ccc(CO)cc2I)cc1" as well?
-0.199

Same question for "C=C(COC)C(=O)CC[C@H](OC(C)=O)c1ccc(OCCO)cc1" please.
-0.267

Further cases:
// query composite z-score value for entry CC(C)OC(=O)CC(=O)CC(O)c1ccc([N+](=O)[O-])cc1 (stereo not drawn)
-0.0134

Now give it for CCN(CC)c1ccc(N2CC=CC34O[C@@H]5/C=C\CCC(C)OC(=O)C5[C@H]3C(=O)N(C(C)CO)[C@@H]4C2=O)cc1 (stereo partly drawn) too.
0.212

Next record, please: CN1C=C(C(=O)OCCS(C)(=O)=O)C(C(=O)OCCS(C)(=O)=O)=CC(c2ccc(CO)cc2)=CC1c1cccs1 (stereo not drawn)
0.0037

====

This section presents molecules with their documented z-score values.
# test.description: E. coli growth modulation, two-sided OD650, primary screen, E. coli filamentation project, strain DRC41, 24 h (AID 1093);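 note: MC1000 strain lacking acrAB efflux and sulA so SOS filamentation is blocked; test concentration not given here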
# assay.context: OD650, 24 h, higher = more signal, called active from +8 up or from −8 down
Format: numeric value only, no unit, no commentary.

Answered examples (2):
So what's the measured z-score for this one? "Cc1ccc(F)cc1S(=O)(=O)N[C@@H]1CCN(Cc2cccc3[nH]ccc23)C1"
-0.833

Next: C=CCC(OC(C)=O)[C@@H]1[C@@H](N(Cc2cccc3ccccc23)C(=O)c2ccc(-c3ccccc3)cc2)c2cc(OCCCO)ccc2N1C(=O)c1ccc(-c2ccccc2)cc1 (stereo partly drawn)
-1.02

As a next step, examine the molecule that follows.
Name the recorded z-score for "C=CCNC(=O)[C@@H]1[C@H]2C(=O)O[C@H](c3ccccc3)[C@H](c3ccccc3)N2[C@H](c2ccc(O)cc2)[C@@]12C(=O)N(C(=O)OCCOC)c1ccc(C#CCCO)cc12" .
-0.369

====

# target.desc: Fibroblast growth factor 10 (Homo sapiens) (UniProt O15520)
# Sequence (O15520 whole entry, looked up): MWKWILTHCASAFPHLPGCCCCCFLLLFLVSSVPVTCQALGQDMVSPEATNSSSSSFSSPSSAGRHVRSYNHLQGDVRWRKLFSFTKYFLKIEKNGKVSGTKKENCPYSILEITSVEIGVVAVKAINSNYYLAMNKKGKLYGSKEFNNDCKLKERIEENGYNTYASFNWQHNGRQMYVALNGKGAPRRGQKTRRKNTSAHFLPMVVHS
# test.description: FGF10 binders on small-molecule microarrays, primary screen, biochemical, small-molecule microarray, 635 nm fluorescence (AID 1102)
# assay.context: FGF10 binding, fluorescence 635 nm, higher = more signal
Is composite z-score at least 0.4? Then 1. If not, 0.

Is reported composite z-score greater than or equal to 0.4 here: "COC(=O)c1c2oc(c1C(=O)OC)C(=O)N1CCC[C@H]1Cn1nncc1CN(Cc1ccccc1)C(=O)N[C@H](CO)CC2"
1

Another compound to look at: "Cc1ccc(S[C@]2(C(=O)NCc3ccccc3)CC(=O)N(Cc3cc(C(F)(F)F)cc(C(F)(F)F)c3)[C@@H]2c2ccc(CO)cc2I)cc1"
0

Then "COCCCNC(=O)[C@@]1(Sc2ccc(C)cc2)CC(=O)N(Cc2ccccc2Cl)[C@@H]1c1ccc(CO)cc1I" ?
0

And then "COCCOC(=O)N1C(=O)[C@@]2(c3ccccc31)[C@H](c1ccc(OCCO)cc1)N1[C@H](c3ccccc3)[C@H](c3ccccc3)OC(=O)[C@H]1[C@@H]2C(=O)N1CCCCCCC1" , what is it?
1

Cool, now COC(=O)C1=CC(CCCO)=CC(C)N(Cc2cccc(OC(F)(F)F)c2)C=C1C(=O)OC (configuration not stated)
0

# ---- query compound ----
Confirm if composite z-score reported for the compound C=CC1c2cc(O)c(OC)cc2CCN1Cc1ccc([N+](=O)[O-])o1 (configuration not stated) is 0.4 or above.
0
